# System: MycCap cells
# measurement.protocol: Cell viability of MycCap cells
# Type: cell-based
# test.settings: Mus musculus, Myc-CaP
Field: pIC50. Provide a value for each of the compounds that follow.
One number for each entry, as −log10 of the molar value.

Some solved cases for reference:
Cn1nc(-c2ccc(OCc3ccc(Cl)cc3)c(-c3cc(C(F)(F)F)cc(C(F)(F)F)c3)c2O)cc1C(F)(F)F ... 4.40
COc1ccc(-c2cc(C(F)(F)F)n(C)n2)c(O)c1-c1cc(C(F)(F)F)cc(C(F)(F)F)c1 ... 5.92

Would you kindly look at the next entry?
input: Tell us which pIC50 value is on record for `[N-]=[N+]=NCCOCCOCCOCC(=O)Nc1ccc(COc2ccc(-c3cc(C(F)(F)F)n[nH]3)c(O)c2-c2cc(C(F)(F)F)cc(C(F)(F)F)c2)cc1`
output: 5.52

---

# Tested on: MycCap cells
# measurement.protocol: Cell viability of MycCap cells
# Assay type: cell-based
# test.settings: Mus musculus, Myc-CaP
Hi there, I'd appreciate the recorded pIC50 for every entry that follows.
Answers are plain numbers, as −log10 of the molar value.

Cn1nc(-c2ccc(OCc3ccc(Cl)cc3)c(-c3ccc(F)cc3)c2O)cc1C(F)(F)F ... 3.96
CCc1ccc(Oc2c(-c3ccc(OCc4ccc(Cl)c(Cl)c4)cc3O)n[nH]c2C(F)(F)F)cc1 ... 4.93
CCCCCCOc1ccc(-c2cc(C(F)(F)F)n[nH]2)c(O)c1-c1cc(C(F)(F)F)cc(C(F)(F)F)c1 ... 5.35
Cn1nc(C(F)(F)F)cc1-c1ccc(OCc2ccc(Cl)cc2)c(-c2cncc(C(F)(F)F)c2)c1O ... 4.81
Oc1c(-c2cc(C(F)(F)F)[nH]n2)ccc(Oc2ccc(Cl)cc2)c1-c1cc(C(F)(F)F)cc(C(F)(F)F)c1 ... 5.29
Oc1cc(OCc2ccc(Cl)cc2)ccc1-c1cc(C(F)(F)F)[nH]n1 ... 5.38

Let us move to another entry and its pIC50.
input: Provide measured pIC50 value, entry: `COc1ccc(-c2c(-c3ccc(OCc4ccc(Cl)cc4)cc3O)n[nH]c2C(F)(F)F)cc1`
output: 5.32

---

# Test system: MycCap cells
# measurement.protocol: Cell viability of MycCap cells
# Type: cell-based
# test.settings: Mus musculus, Myc-CaP
result.type: log10(IC50) (log10 of the value in µM)
Values below are the log10 of the recorded IC50, with µM as the unit.

Solved entries (count: 3):
CCOc1ncc(C(F)(F)F)cc1-c1c(OCc2ccc(Cl)cc2)ccc(-c2cc(C(F)(F)F)n[nH]2)c1O ... 1.13
CCc1ccc(Oc2c(-c3ccc(O)cc3O)n[nH]c2C(F)(F)F)cc1 ... 1.24
COc1ccc(COc2ccc(-c3cc(C(F)(F)F)n[nH]3)c(O)c2-c2cc(C(F)(F)F)cc(C(F)(F)F)c2)cc1 ... 1.10

I would be grateful if you could provide log10(IC50) for each of the following entries.
1. Oc1c(-c2cc(C(F)(F)F)n[nH]2)ccc(OCCN2CCCC2)c1-c1cc(C(F)(F)F)cc(C(F)(F)F)c1
2. Cn1nc(-c2ccc(OCc3ccc(Cl)cc3)c(-c3cccc(C#N)c3)c2O)cc1C(N)=O
3. Oc1cc(OCc2ccc(Cl)cc2)ccc1-c1n[nH]cc1-c1ccoc1
4. Cn1nc(C(F)(F)F)cc1-c1ccc(OCc2ccc(Cl)cc2)c(-c2cc(C(F)(F)F)cc(C(F)(F)F)c2)c1O
5. Cc1ccc(-c2c(OCc3ccc(Cl)cc3)ccc(-c3cc(C(F)(F)F)[nH]n3)c2O)cc1

output:
1. 0.00
2. 1.69
3. 0.81
4. 0.58
5. 0.82

Provide the reported log10(IC50) of each entry below, same order.
1. CC(C)CCOc1ccc(-c2cc(C(F)(F)F)n[nH]2)c(O)c1-c1cncc(C#N)c1
2. CCCCOc1ccc(-c2cc(C(F)(F)F)n(C)n2)c(O)c1-c1cncc(C(F)(F)F)c1
3. CCc1c(OCc2ccc(Cl)cc2)ccc(-c2cc(C(F)(F)F)n[nH]2)c1O
4. O=C1CCC(N2C(=O)c3cccc(OCc4cn(CCOCCOCCOCC(=O)Nc5ccc(COc6ccc(-c7cc(C(F)(F)F)n[nH]7)c(O)c6-c6cc(C(F)(F)F)cc(C(F)(F)F)c6)cc5)nn4)c3C2=O)C(=O)N1 (stereo not shown)
5. CCc1ccc(Oc2c(-c3ccc(OCc4ccc(Cl)cc4)cc3O)n[nH]c2C(F)(F)F)cc1
6. COc1ccc(-c2c(-c3ccc(OCc4ccc(Cl)cc4)cc3O)n[nH]c2C(F)(F)F)cc1OC

output:
1: 1.17; 2: 0.64; 3: 0.34; 4: 0.60; 5: 0.49; 6: 0.36

Please go through the list and note log10(IC50) for each molecule.
1. CCc1ccc(Oc2c(-c3ccc(OCCc4cccc(C(F)(F)F)c4)cc3O)n[nH]c2C(F)(F)F)cc1
2. CCOC(=O)c1cc(-c2ccc(OCc3ccc(Cl)cc3)c(-c3cc(C(F)(F)F)cc(C(F)(F)F)c3)c2O)n[nH]1

output:
[0.61, 0.71]
